Please provide measured pre-steady-state target cleavage rate for the entries that follow.
System: MILI (PIWIL2) piRISC loaded with piRNA #1 (26 nt);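 note: 1 nM active piRISC with 0.1 nM target library at 33 °C single turnover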
Experiment: pre-steady-state target cleavage rate (min^-1); guide: piRNA #1 5'p-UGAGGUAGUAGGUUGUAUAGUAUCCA; MIWI and MILI are mouse PIWI proteins and EfPiwi is from a freshwater sponge; tags in brackets are library labels; higher = faster piRNA-guided slicing of the target
Settings: auxiliary factor: 500 nM mouse GTSF1
Numbers only.

Recorded results for 2 sequences are shown here.
{"columns": ["SEQUENCE_CHAIN", "NUMERIC_RESULT"],
 "data": [
  ["GGAGACGAUAGUAUACAACCUACUACCACA", 0.136],
  ["GGAGACCAUACUAUACAACCUCUACCUCA", 0.00997]
]}

Batch of 2 sequences: report pre-steady-state target cleavage rate for each.
1. GGAGACCUAUGAAUACAACCUACUACCUA
2. GGAGACCAUACUAUACUACGUACUACCUCA

Result:
0.00429
0.0334
